Entry source: patent US12098145B2

I'd be grateful if you could share measured EC50 for these entries.
molecular target: TRPML1 (Homo sapiens); construct: expressed in transfected cells; host or cells: HEK T-REx cells stably expressing GCaMP6f and TRPML1; experiment: Cellular TRPML1 assay (FLIPR, GCaMP6f calcium read-out); type: cell-based; conditions: HEKT-REx/GCaMP6f/TRPML1 cells, FLIPR TETRA, kinetic response over 300 seconds; read-out: TRPML1 FLIPR pEC50 (converted)
Sequence (Q9GZU1 whole entry): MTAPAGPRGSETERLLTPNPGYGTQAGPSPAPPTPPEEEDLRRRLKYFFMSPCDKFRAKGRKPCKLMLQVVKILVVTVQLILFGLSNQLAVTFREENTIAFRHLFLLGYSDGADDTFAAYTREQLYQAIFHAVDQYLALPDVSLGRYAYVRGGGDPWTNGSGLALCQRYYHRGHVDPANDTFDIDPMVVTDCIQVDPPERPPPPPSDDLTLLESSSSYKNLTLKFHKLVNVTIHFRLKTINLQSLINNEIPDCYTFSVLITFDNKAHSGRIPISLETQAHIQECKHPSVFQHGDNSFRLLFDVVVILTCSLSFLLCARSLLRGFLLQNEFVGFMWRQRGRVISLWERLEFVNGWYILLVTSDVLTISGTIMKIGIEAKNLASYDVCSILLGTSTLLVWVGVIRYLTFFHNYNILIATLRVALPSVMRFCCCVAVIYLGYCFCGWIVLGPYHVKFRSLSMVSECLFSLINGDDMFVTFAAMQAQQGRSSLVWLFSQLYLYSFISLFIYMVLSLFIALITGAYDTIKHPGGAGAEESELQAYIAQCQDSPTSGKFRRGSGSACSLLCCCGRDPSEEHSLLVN

Answered examples (5):
O=C(Nc1cc(F)c(O[C@@H]2C[C@@H]3C[C@@H]3C2)c(F)c1)c1nc(N2CCOCC2)oc1CC(F)(F)F :: 1000 to 10000 nM
CCc1oc(N2CCCC2)nc1C(=O)Nc1cc(F)c(O[C@@H]2C[C@@H]3C[C@@H]3C2)c(F)c1 :: 10 to 1000 nM
CCC1(CC)CN(c2nc(C(=O)Nc3cc(F)c(N4CCC5CC5C4)c(F)c3)c(CC(F)(F)F)o2)C1 (stereo not drawn) :: 10 to 1000 nM
O=C(Nc1cc(F)c(OC2CC3C[C@H]3C2)c(F)c1)c1nc(N2C[C@H]3CCO[C@H]3C2)oc1CC(F)(F)F (stereo partly drawn) :: 10 to 1000 nM
CCC1(CC)CN(c2nc(C(=O)Nc3cc(O)c(O[C@@H]4C[C@@H]5C[C@@H]5C4)c(F)c3)c(CC(F)(F)F)o2)C1 :: 10 to 1000 nM

Count: 2. Required value per item: EC50.
1. O=C(Nc1ccc(OC2CCCC2)c(F)c1)c1nc(N2CCC3(COC3)C2)oc1CC(F)(F)F
2. Cc1oc(N2CCC3(CCC3)C2)nc1C(=O)Nc1ccc(N2CCCCC2)c(F)c1

output:
1: 1000 to 10000 nM; 2: 10000 to 100000 nM

Parameter requested: EC50. Apply to each item below.
1. CCc1oc(N2CC3COCC3C2)nc1C(=O)Nc1cc(F)c(OC2CC3C[C@H]3C2)c(F)c1 (stereo partly drawn)
2. O=C(Nc1cc(F)c(OC2CC3C[C@H]3C2)c(F)c1)c1nc(N2CC3(C2)CC(F)(F)C3)oc1CC(F)(F)F (stereo partly drawn)
3. Cc1oc(N2CCC(CN3CCC(F)(F)CC3)C2)nc1C(=O)Nc1ccc(N2CCCCC2)c(F)c1 (stereo not drawn)
4. CCCc1oc(N2CCC3CCCC32)nc1C(=O)Nc1cc(F)c(OC2CC3C[C@H]3C2)c(F)c1 (stereo partly drawn)
5. Cc1oc(N2CCC3(CC3)C2)nc1C(=O)Nc1ccc(N2CCCCC2)c(F)c1
6. CCC1(CC)CN(c2nc(C(=O)Nc3cc(C)c(OC4CC5CC(C5)C4)c(O)c3)c(CC(F)(F)F)o2)C1 (stereo not drawn)
7. O=C(Nc1ccc(OC2CCCC2(F)F)c(F)c1)c1nc(N2CC3(C2)CC(F)(F)C3)oc1CC(F)(F)F (stereo not drawn)
8. COCCN(CC(C)C)c1nc(C(=O)Nc2cc(F)c(O[C@@H]3C[C@@H]4C[C@@H]4C3)c(F)c2)c(CC(F)(F)F)o1

output:
1. 10 to 1000 nM
2. 10 to 1000 nM
3. 10000 to 100000 nM
4. 10 to 1000 nM
5. 1000 to 10000 nM
6. 10 to 1000 nM
7. 10 to 1000 nM
8. 1000 to 10000 nM

For every item below, please supply its EC50.
1. CN(c1ccc(NC(=O)c2nc(N3CCCC3)oc2CC(F)(F)F)cc1F)C1CC2CC2C1 (stereo not drawn)
2. Cc1cc(NC(=O)c2nc(N3CCCC3)oc2CCF)cc(F)c1OC1CC2CC(C2)C1 (stereo not drawn)
3. CCc1oc(N2CCCOCC2)nc1C(=O)Nc1cc(F)c(O[C@@H]2C[C@@H]3C[C@@H]3C2)c(F)c1
4. CC1(C)CCCC1Oc1ccc(NC(=O)c2nc(N3CCCC3)oc2CC(F)(F)F)cc1F (stereo not drawn)
5. O=C(Nc1ccc(N2CCCCC2)c(F)c1)c1nc(N2CCC3(CC2)CS(=O)(=O)C3)oc1CC(F)(F)F

output:
1: 1000 to 10000 nM; 2: 10 to 1000 nM; 3: 1000 to 10000 nM; 4: 1000 to 10000 nM; 5: 10000 to 100000 nM
